# Tested on: carbapenem-resistant K. pneumoniae strain (ATCC BAA-1705)
# Type: cell-based, Klebsiella pneumoniae
# PARTICULARS: CLSI protocol in CA-MHB; ATCC BAA-1705
Where no end group is shown, it is not given here.
Known MIC (μM) of a selection of substances
Please give a number only; it is taken to be in µM.

Worked set:
| SUBSTANCE | METRIC NAME | ENDPOINT RESULT |
| --- | --- | --- |
| FRWRRFFRKAKRFLKRHGVSIAIGTVRLLRRFG [VK-CATH4.1] | MIC (μM) | 7.7 |
| Ac-FRWRRFFRKAKRFLKRHAVSIAIGTVRLLRRFG-NH2 [DRGN-3] | MIC (μM) | 7.6 |

The recorded MIC (μM) for H-FRWRRFFRKAKRFLKRHAVSIAIGTVRLLRRFG-OH [DRGN-2] is 7.7
